Each recorded value in this set is attributed to patent US9399635B2.

Reported concentration at 180 min values are given for each entry in this list.
# Protocol Description: Evaluation of in vivo pharmacokinetics (blood and brain concentrations, LC-MS/MS)
# Run Conditions: male, rat; SD rats, oral 50 mg/kg bw, 180 min, brain; read-out: brain concentration p.o. 180 min

| Smiles Data | concentration at 180 min |
| --- | --- |
| COc1cc(OCc2ccccn2)ccc1/C=C/C(=O)CC(=O)/C=C/c1ccc2cc[nH]c2c1 | 18 ng/mL |
| COc1cc(OCc2ccccn2)ccc1/C=C/c1cc(/C=C/c2ccc3cc[nH]c3c2)[nH]n1 | 68.9 ng/mL |

---

# Experimental System: recombinant human β-secretase (Homo sapiens, UniProt P56817)
# Construct: purchased Invitrogen
# Sequence (P56817 46-501): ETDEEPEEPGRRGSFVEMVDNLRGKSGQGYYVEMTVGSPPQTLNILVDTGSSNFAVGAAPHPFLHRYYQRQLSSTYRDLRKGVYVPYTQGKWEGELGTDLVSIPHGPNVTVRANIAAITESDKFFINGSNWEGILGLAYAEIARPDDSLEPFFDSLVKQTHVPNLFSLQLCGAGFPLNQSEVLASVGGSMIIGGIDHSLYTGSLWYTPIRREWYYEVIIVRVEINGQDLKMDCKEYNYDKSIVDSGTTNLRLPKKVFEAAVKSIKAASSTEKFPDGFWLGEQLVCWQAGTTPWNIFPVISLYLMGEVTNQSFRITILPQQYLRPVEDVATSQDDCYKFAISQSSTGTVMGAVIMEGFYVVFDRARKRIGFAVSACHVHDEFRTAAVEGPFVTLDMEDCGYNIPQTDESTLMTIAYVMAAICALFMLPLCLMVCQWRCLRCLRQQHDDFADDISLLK
# Protocol Description: Determination of β-secretase inhibitory activity (BACE-1 FRET assay Kit)
# Format: biochemical
# Run Conditions: recombinant human β-secretase, fluorescent substrate peptide, 1 hour; read-out: IC50 (μM) Test example 2 (β-secretase inhibitory activity)
Measured Quantity: IC50

| Molecule | Experimental System | Measured Quantity | Observed Measurement |
| --- | --- | --- | --- |
| COc1cc(OCc2ccccn2)ccc1/C=C/c1cc(/C=C/c2ccc3[nH]cnc3c2)[nH]n1 | recombinant human β-secretase (Homo sapiens, UniProt P56817) | IC50 | 0.69 µM |
| CCN(CC)c1ccc(/C=C/c2cc(/C=C/c3ccc4cc[nH]c4c3)[nH]n2)c(OCCN2CCOCC2)c1 | recombinant human β-secretase (Homo sapiens, UniProt P56817) | IC50 | 1.25 µM |
| CN1CCCN(c2ccc(/C=C/c3cc(/C=C/c4ccc5cc[nH]c5c4)[nH]n3)c(Br)c2)CC1 | recombinant human β-secretase (Homo sapiens, UniProt P56817) | IC50 | 0.22 µM |
| COc1cc(OCCN2CCOCC2)ccc1/C=C/c1cc(/C=C/c2ccc3cc[nH]c3c2)[nH]n1 | recombinant human β-secretase (Homo sapiens, UniProt P56817) | IC50 | 1.04 µM |
| COc1cc(OCc2nccs2)ccc1/C=C/c1cc(/C=C/c2ccc3cc[nH]c3c2)[nH]n1 | recombinant human β-secretase (Homo sapiens, UniProt P56817) | IC50 | 3.99 µM |
| Oc1cc(OCc2ccccn2)ccc1/C=C/c1cc(/C=C/c2ccc3cc[nH]c3c2)[nH]n1 | recombinant human β-secretase (Homo sapiens, UniProt P56817) | IC50 | 2.9 µM |
| COc1cc(OCc2ccccn2)ccc1/C=C/c1cc(/C=C/c2ccc3c(c2)OCO3)[nH]n1 | recombinant human β-secretase (Homo sapiens, UniProt P56817) | IC50 | 13.7 µM |
| COc1cc(OCc2ccccn2)ccc1/C=C/c1cc(/C=C/c2ccc(O)c(N)c2)[nH]n1 | recombinant human β-secretase (Homo sapiens, UniProt P56817) | IC50 | 2.89 µM |
| COc1cc(OCC2CCCO2)ccc1/C=C/c1cc(/C=C/c2ccc3cc[nH]c3c2)[nH]n1 (centres unmarked) | recombinant human β-secretase (Homo sapiens, UniProt P56817) | IC50 | 2.85 µM |
| COc1cc(OCc2ccccn2)ccc1/C=C/c1cc(/C=C/c2ccc3c(c2)OCCO3)[nH]n1 | recombinant human β-secretase (Homo sapiens, UniProt P56817) | IC50 | 22.7 µM |
| COc1cc(OCc2ccccc2)ccc1/C=C/c1cc(/C=C/c2ccc3cc[nH]c3c2)[nH]n1 | recombinant human β-secretase (Homo sapiens, UniProt P56817) | IC50 | 4.39 µM |
| COc1cc(OCc2ccccn2)ccc1/C=C/c1cc(/C=C/c2ccc3cc[nH]c3c2)[nH]n1 | recombinant human β-secretase (Homo sapiens, UniProt P56817) | IC50 | 3 µM |
| CN1CCN(c2ccc(/C=C/c3cc(/C=C/c4ccc5cc[nH]c5c4)[nH]n3)cc2)CC1 | recombinant human β-secretase (Homo sapiens, UniProt P56817) | IC50 | 1.06 µM |
| COc1ccc([N+](=O)[O-])c(/C=C/c2cc(/C=C/c3ccc4cc[nH]c4c3)[nH]n2)c1 | recombinant human β-secretase (Homo sapiens, UniProt P56817) | IC50 | 1.11 µM |

---

| Compound | melting point |
| --- | --- |
| CC(C)c1ccc(/C=C/c2cc(/C=C/c3ccc4cc[nH]c4c3)[nH]n2)cc1 [Example 78] | 208 to 212 °C |
| COc1cc(OCC2CCCCC2)ccc1/C=C/c1cc(/C=C/c2ccc3cc[nH]c3c2)[nH]n1 [Example 80] | 104 to 108 °C |
| COc1cc(OCc2ccccn2)ccc1/C=C/c1cc(/C=C/c2ccc(O)c(N)c2)[nH]n1 [Example 111] | 123 to 126 °C |
| COc1ccc(COc2ccc(/C=C/c3cc(/C=C/c4ccc5cc[nH]c5c4)[nH]n3)c(OC)c2)cc1 [Example 68] | 211 to 214 °C |
| COc1cc(OCc2cccnc2)ccc1/C=C/c1cc(/C=C/c2ccc3cc[nH]c3c2)[nH]n1 [Example 46] | 90 to 95 °C |
| C(=C\c1cc(/C=C/c2ccc3cc[nH]c3c2)[nH]n1)/c1ccc(-c2ccccc2)cc1 [Example 61] | 273 to 276 °C |
| CCN(CC)c1ccc(/C=C/c2cc(/C=C/c3ccc4cc[nH]c4c3)[nH]n2)c(OC)c1 [Example 104] | 104 to 108 °C |
| COc1ccc(/C=C/c2cc(/C=C/c3ccc4[nH]ccc4c3)[nH]n2)cc1OCc1ccccn1 [Example 6] | 109 to 118 °C |
| C(=C\c1cc(/C=C/c2ccc3cc[nH]c3c2)[nH]n1)/c1ccc(OCc2ccccn2)cc1 [Example 16] | 211 to 214 °C |
| COc1cc(OCCn2cccc2)ccc1/C=C/c1cc(/C=C/c2ccc3cc[nH]c3c2)[nH]n1 [Example 81] | 102 to 110 °C |
| COc1cc(OCc2ccccn2)ccc1/C=C/c1cc(/C=C/c2ccc3c(c2)OCCO3)[nH]n1 [Example 83] | 153 to 155 °C |
| COc1ccc(/C=C/c2cc(/C=C/c3c[nH]c4ccccc34)[nH]n2)cc1OCc1ccccn1 [Example 12] | 232 to 243 °C |
| COc1cc(OCc2ccccc2)ccc1/C=C/c1cc(/C=C/c2ccc3cc[nH]c3c2)[nH]n1 [Example 63] | 86 to 91 °C |
| C(=C\c1cc(/C=C/c2ccc3cc[nH]c3c2)[nH]n1)/c1ccc(Oc2ccccc2)cc1 [Example 56] | 175 to 182 °C |
| CC(=O)Nc1ccc(/C=C/c2cc(/C=C/c3ccc4cc[nH]c4c3)[nH]n2)cc1 [Example 55] | > 300 °C |
| COc1cc(OCc2nccs2)ccc1/C=C/c1cc(/C=C/c2ccc3cc[nH]c3c2)[nH]n1 [Example 82] | 229 to 237 °C |
| COc1cc(OCC2CCCO2)ccc1/C=C/c1cc(/C=C/c2ccc3cc[nH]c3c2)[nH]n1 (stereo not shown) [Example 1] | 218 to 220 °C |
| C(=C\c1cc(/C=C/c2ccc3cc[nH]c3c2)[nH]n1)/c1ccc2cc[nH]c2c1 [Example 112] | 289 to 291 °C |
| COc1cc(OCCN2CCCCC2)ccc1/C=C/c1cc(/C=C/c2ccc3cc[nH]c3c2)[nH]n1 [Example 26] | 150 to 155 °C |
| COc1cc(OCc2ccccn2)ccc1/C=C/c1cc(/C=C/c2cccc3ncccc23)[nH]n1 [Example 69] | 107 to 120 °C |
| COc1cc(OCc2ccncc2)ccc1/C=C/c1cc(/C=C/c2ccc3cc[nH]c3c2)[nH]n1 [Example 47] | 103 to 118 °C |
| CS(=O)(=O)c1ccc(/C=C/c2cc(/C=C/c3ccc4cc[nH]c4c3)[nH]n2)cc1 [Example 57] | 260 to 268 °C |
| COc1ccc([N+](=O)[O-])c(/C=C/c2cc(/C=C/c3ccc4cc[nH]c4c3)[nH]n2)c1 [Example 58] | 104 to 109 °C |
| COc1cc(OC(C)C)ccc1/C=C/c1cc(/C=C/c2ccc3cc[nH]c3c2)[nH]n1 [Example 65] | 107 to 113 °C |
| COc1cc(OCc2ccccn2)ccc1/C=C/c1cc(/C=C/c2ccc(OCc3ccccn3)cc2OC)[nH]n1 [Example 110] | 195 to 197 °C |
| COc1cc(OCc2ccccn2)ccc1/C=C/c1cc(/C=C/c2ccccc2)[nH]n1 [Example 109] | 143 to 146 °C |
| CN1CCN(c2ccc(/C=C/c3cc(/C=C/c4ccc5cc[nH]c5c4)[nH]n3)cc2)CC1 [Example 102] | 192 to 198 °C |
| COc1cc(OCc2ccccn2)ccc1/C=C/c1cc(/C=C/c2ccc3ccn(S(C)(=O)=O)c3c2)[nH]n1 [Example 74] | 212 to 214 °C |
| C(=C\c1cc(/C=C/c2c[nH]c3ccccc23)[nH]n1)/c1cccc(OCc2ccccn2)c1 [Example 13] | 198 to 201 °C |
| COc1cc(OCc2ccccn2)ccc1/C=C/c1cc(/C=C/c2ccc3c(c2)OCO3)[nH]n1 [Example 77] | 218 to 220 °C |
| COc1cc(OCc2cccnc2)ccc1/C=C/c1cc(/C=C/c2cccc3cc[nH]c23)[nH]n1 [Example 50] | 122 to 129 °C |
